# System: BRSK1
# measurement_setup: concentration: 1 μM,replicates: in singlicate; n = 1;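 note: KINOMEscan kinase panel screen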
# maps each entry to its %Inh
Quick note: give the figure in %, leave out the unit.

A selection of reference data follows.
* C[C@H]1Oc2cc(cnc2N)-c2c(nn(C)c2C#N)CN(C)C(=O)c2ccc(F)cc21 | 3
* CN(C)CC(O)COc1ccc(Nc2nccc(-c3cnn4nc(N5CCOCC5)ccc34)n2)cc1 (stereo not shown) [GW767488] | 3
* COc1ccc(C[C@@H](CN)NC(=O)c2cc(Br)c(-c3ccnc4[nH]ccc34)s2)cc1.Cl.Cl [GSK1389063] | 46
* CCN(CC)CCCCNc1ncc2cc(-c3c(Cl)cccc3Cl)c(NC(=O)NC(C)(C)C)nc2n1 | 13
* CNC(=O)c1ccccc1Sc1ccc2c(/C=C/c3ccccn3)n[nH]c2c1 | 34
* Cc1ccc(-n2nc(C(C)(C)C)cc2NC(=O)Nc2ccc(OCCN3CCOCC3)c3ccccc23)cc1 [GW839464] | 6

// below: %Inh requested for another molecule
INPUT: For the molecule Cl.Oc1cc(-c2nc(-c3ccccc3)[nH]c2-c2ccncc2)ccc1Cl [SB-386023] , what %Inh is on record?
OUTPUT: 0

----------
# System: MYO3B
# measurement_setup: concentration: 1 μM,replicates: in singlicate; n = 1
# maps each entry to its %Inh
Quick note: give the figure in %, leave out the unit.

A selection of reference data follows.
* NC(=O)c1cc(-c2ccccc2)cc2c(C3CCNCC3)c[nH]c12 | 0
* CNC(=O)c1ccccc1Sc1ccc2c(/C=C/c3ccccn3)n[nH]c2c1 | 0
* CCN(CC)CCCCNc1ncc2cc(-c3c(Cl)cccc3Cl)c(NC(=O)NC(C)(C)C)nc2n1 | 23

INPUT: For the compound COc1ccc(C[C@@H](CN)NC(=O)c2cc(Br)c(-c3ccnc4[nH]ccc34)s2)cc1.Cl.Cl , what %Inh is on record?
OUTPUT: 0

INPUT: For the compound O=C(NCCCN1CCOC1=O)c1cnc(NCc2cc(Cl)ccc2Cl)nc1NC1CCCC1 , what %Inh is on record?
OUTPUT: 16

INPUT: For the compound CCN(CC)CCOc1ccc(Nc2ncc3cc(-c4c(Cl)cccc4Cl)c(=O)n(C)c3n2)cc1 , what %Inh is on record?
OUTPUT: 38

INPUT: For the compound O=C(NCCNc1ccnc(NCc2ccc(F)cc2)n1)c1cc2ccccc2s1 , what %Inh is on record?
OUTPUT: 0

INPUT: For the compound Cc1ccc2c(-c3ccncc3)c(-c3ccc(F)cc3)nn2c1.Cl , what %Inh is on record?
OUTPUT: 7

INPUT: For the compound C[C@H]1Oc2cc(cnc2N)-c2c(nn(C)c2C#N)CN(C)C(=O)c2ccc(F)cc21 , what %Inh is on record?
OUTPUT: 17

INPUT: For the compound Nc1nc(Nc2ccccc2)cc(-c2ccc3c(N)n[nH]c3c2)n1 , what %Inh is on record?
OUTPUT: 0

----------
# Tested on: BMX
# measurement_setup: concentration: 1 μM,replicates: in singlicate; n = 1
measured_quantity: %Inh
Put down the number, then write its unit next to it.

INPUT: For the compound Cc1ccc(-n2nc(C(C)(C)C)cc2NC(=O)Nc2ccc(OCCN3CCOCC3)c3ccccc23)cc1 , what %Inh is on record?
OUTPUT: 4%

INPUT: For the compound COc1ccc(C[C@@H](CN)NC(=O)c2cc(Br)c(-c3ccnc4[nH]ccc34)s2)cc1.Cl.Cl , what %Inh is on record?
OUTPUT: 12%

INPUT: For the compound CCN(CC)CCOc1ccc(Nc2ncc3cc(-c4c(Cl)cccc4Cl)c(=O)n(C)c3n2)cc1 , what %Inh is on record?
OUTPUT: 99.9%
